System: Sonic hedgehog protein (Shh)
Protocol text: Sonic hedgehog microarray binding compounds – biochemical, small-molecule microarray, 635/667 nm fluorescence, primary screen (AID 1151);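 note: Shh protein binding to compounds spotted on small-molecule microarray slides; score combines spot fluorescence intensity with signal-to-noise across triplicate slides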
Stated conditions: 635 nm fluorescence, higher = more signal

Compound	composite z-score
CC(C)C[C@@H]1NC(=O)[C@@H]2C[C@H](C(=O)NCCCCN(C)C)[C@H](c3ccc(O)cc3)N2C1=O	0.273
O=C(N1CCCCC1)[C@]1(CCS(=O)(=O)c2ccccc2)N=C(c2ccc(OCCCO)cc2)O[C@@H]1c1ccccc1	0.624
O=C(NCC(O)CO)[C@]1(CCS(=O)(=O)c2ccccc2)N=C(c2ccc(OCCCO)cc2)O[C@@H]1c1ccccc1 (stereo partly drawn)	-1.05
CCOC1=C2C(c3ccc(C)cc3)N(S(=O)(=O)c3ccc(C)cc3)CC2n2c(=O)n(-c3ccccc3)c(=O)n2C1 (stereo not drawn)	0.254
O[C@@H](Cc1ccccc1)[C@@H](/C=C/c1ccccc1)NCc1ccccc1Br	-1.08
C=CCC(OC(C)=O)[C@@H]1[C@@H](N(Cc2cc3ccccc3o2)C(=O)c2cccc3ccccc23)c2cc(OCCCO)ccc2N1C(=O)Cc1ccc(OC)cc1 (stereo partly drawn)	1.16
COCCOC(=O)N1C(=O)[C@@]2(c3cc(C#CCC(C(=O)OC)C(=O)OC)ccc31)[C@H](c1ccc(OCCO)cc1)N1[C@H](c3ccccc3)[C@H](c3ccccc3)OC(=O)[C@H]1[C@@H]2C(=O)NC[C@H](O)c1ccccc1	2.14
COCCCNC(=O)[C@@]1(C)c2ccccc2C(=O)N(Cc2ccccc2)[C@H]1c1ccc(CO)cc1	0.182

----------
Protocol text: compound effects on differentiated 3T3-L1 adipocyte viability – cell-based, 3T3-L1 adipocytes, calcein-AM fluorescence, 48 h, basal, profiling panel (AID 1163); note: test concentration not given here
Stated conditions: 3T3-L1 adipocytes viability, higher = more signal

Compound	z-score
Cc1ccc(N2C(=O)c3ccccc3[C@@H](C(=O)NCC(C)C)[C@@H]2c2ccc(CO)cc2)nc1	-0.136
COC(=O)c1c(CC[C@@H](CO)NC(=O)Nc2ncn[nH]2)oc(C(=O)Cc2ccccc2)c1C(=O)OC	-0.927
CCCCN1CC=CC23O[C@@H]4C=CCCOC(=O)C4[C@H]2C(=O)N(CCCO)[C@@H]3C1=O (stereo partly drawn)	1.53
COCCOC(=O)N1C(=O)[C@@]2(c3cc(C#CC4=CCCCC4)ccc31)[C@H](c1ccc(OCCO)cc1)N1[C@H](c3ccccc3)[C@H](c3ccccc3)OC(=O)[C@H]1[C@@H]2C(=O)Nc1nc2ccccc2s1	0.0841
CC1CC/C=C\[C@H]2OC34C=CCN(Cn5nnc6ccccc65)C(=O)[C@H]3N(CCCO)C(=O)[C@@H]4C2C(=O)O1 (stereo partly drawn)	1.5
O=C1C2C=CC(C(O)c3ccc(B(O)O)cc3)N(Nc3ccc([N+](=O)[O-])cc3)C2C(=O)N1c1ccccc1 (stereo not drawn)	-0.167
C=CCN1C(=O)[C@@]2(O[C@@H](CCO)[C@H]([Si](C)(C)c3ccc(OC)cc3)[C@H]2C)c2cc(N3C(=O)COc4ccccc43)ccc21	-0.967
O=C(NCc1ccccc1)[C@@H]1c2ccccc2C(=O)N(C2CCCCC2)[C@H]1c1ccc(CO)cc1	-0.116
C=C[C@H](OC)[C@@H](OC(=O)Nc1ccc(SC)cc1)c1ccc(OCCO)cc1	0.559
COC(=O)[C@@]1(Cc2ccc(OC)cc2)[C@H]2c3cc(C(=O)N4CCCC4)n(C[C@H](O)CO)c3C[C@H]2CN1C(=O)c1ccccc1	-0.113
O=C1OCCC=C[C@H]2OC34C=CCN(CCN5CCOCC5)C(=O)[C@H]3N(CCO)C(=O)[C@@H]4C12 (stereo partly drawn)	-0.246
O=C(NCC(F)(F)F)[C@@H]1c2ccccc2C(=O)N(Cc2ccccc2)[C@H]1c1ccc(CO)cc1	0.402
O=C1O[C@@H](c2ccccc2)[C@@H](c2ccccc2)N2[C@@H](c3ccc(O)cc3)[C@]3(C(=O)Nc4ccccc43)[C@@H](C(=O)N3CCCCCCC3)[C@H]12	0.616
CC(C)(C)OC(=O)CC[C@@]1(C(=O)NCC(O)CO)N=C(c2ccc(OCCCO)cc2)O[C@@H]1c1ccccc1 (stereo partly drawn)	-1.09
C#C[C@H]1Oc2ccccc2S(=O)(=O)N2CCC[C@@H]12	-0.401
COC(=O)[C@@]1(Cc2ccc(F)cc2)[C@H]2c3cc(C(=O)N(C)C)n(CCc4c[nH]c5ccc(OC)cc45)c3C[C@H]2CN1C(=O)c1ccccc1	0.813
O=C1c2ccccc2[C@](Cc2ccccc2I)(C(=O)O)[C@H](c2ccc(CO)cc2)N1Cc1ccccc1C(F)(F)F	-0.24
C=CCC(OC(C)=O)[C@@H]1[C@@H](N(Cc2cc3ccccc3o2)C(=O)c2ccc(-c3ccccc3)cc2)c2cc(OCCCO)ccc2N1C(=O)Cc1ccc2ccccc2c1 (stereo partly drawn)	0.778
O=C1C2C=CC(C(O)CCc3ccccc3)N(Nc3ccccc3)C2C(=O)N1c1ccccc1 (stereo not drawn)	-1.12
CN1C(=O)C2C=CC(C(O)C=Cc3ccc([N+](=O)[O-])cc3)N(N3CCCCC3)C2C1=O (stereo not drawn)	-1.15
C=CCNC(=O)[C@@H]1[C@H]2C(=O)O[C@H](c3ccccc3)[C@H](c3ccccc3)N2[C@H](c2ccccc2OCCO)[C@@]12C(=O)N(C(=O)OCCOC)c1ccc(C#CCC(C(=O)OC)C(=O)OC)cc12	-0.609
C=CC[C@]1(C(=O)NCCN2CCOCC2)N=C(c2ccc(OCCCO)cc2)O[C@H]1c1ccccc1N=[N+]=[N-]	0.572
O=C1C[C@@](C(=O)O)(c2ccc([N+](=O)[O-])cc2)[C@@H](c2ccc(CO)cc2I)N1CC12CC3CC(CC(C3)C1)C2	-1.05
NC(=O)[C@@]1(CCS(=O)(=O)c2ccccc2)N=C(c2ccc(OCCCO)cc2)O[C@H]1c1ccccc1	0.957
[N-]=[N+]=NCc1ccccc1[C@@H]1OC(c2ccc(OCCCO)cc2)=N[C@]1(Cc1ccccc1)C(=O)O	0.333
C=CCC(OC(C)=O)[C@@H]1[C@@H](N(Cc2cc3ccccc3o2)C(=O)c2cccc3ccccc23)c2cc(OCCCO)ccc2N1C(=O)Cc1ccc(OC)cc1 (stereo partly drawn)	1.28
COc1ccc([Si](C)(C)[C@H]2[C@H](CC(=O)N(CCO)Cc3ccccc3)O[C@@]3(C(=O)N(Cc4cccc(N5C(=O)c6cccc7cccc5c67)c4)c4ccccc43)[C@@H]2C)cc1	0.996
C=CCC(OC(C)=O)[C@@H]1[C@@H](N(Cc2ccc(-c3cccc(C(F)(F)F)c3)o2)C(=O)Cc2ccc(OC)cc2)c2cc(OCCCO)ccc2N1C(=O)Cc1ccc(OC)cc1 (stereo partly drawn)	1.38
